# credit: patent US20100278834A1

Target: H5 hemagglutinin (HA) of H5N1 influenza A virus, strain not stated (influenza A virus (H5N1), strain not stated)
Test: cross-inhibition of binding to HA; competitor: FLD194
reportedEndpoint: Inhibition of binding (%)

Task: Look at this binder and give its reported Inhibition of binding (%). FLA3.14 (antibody, V domains shown) VH: EVQLVQSGAEVKKPGESLKISCQASGYSFTSRWIGWVRQMPGKGLEWVGFIYPSDSDVRYSPSFRGQVTISADKSISTAYLQWSSLKASDTAMYFCARLGGNKDYGDYLWYFDLWGRGALVTVSS VL: EIVMTQSPDTLSVSPGERATLSCRASQSVNRRLAWYQQKPGQAPRLLIHDASTRATGIPARFSGSGSGTEFTLTISSLQSEDFAVYYCQQYDNWLSFGQGTRLEIK
Result: 100%

Task: // query Inhibition of binding (%) value for entry FLD122 (antibody, V domains shown) VH: QFQLVQSGPEVKKPGTSVKVSCKASGYTSTTYGISWVRQVPGQGLEWMGWINPYNGNPHYGQKFQGRVTLTRDTSTNTAYLEILSLRSDDTAVYYCARDGWGQQLVPYYFDYWGQGTLVTVSS VL: DIVMTQSPLSLPVTPGEPASISCRASQSLLHSNGYNYLDWYLQKPGQSPQLLIQLGSTRASGVPDRFSGSGSGTDFTLEISRVEAEDVGVYYCMQALQLPLAFGQGTRLEIK
Result: 100%

Task: I am curious: what Inhibition of binding (%) value has been reported for FLD93 (antibody, V domains shown) VH: WWQLVQSGAEVKKPGSSVKVSCKASGGTFSSYDISWVRQAPGQGLEWMGGIIPIYGTANYAQKFQGRVTITADESTSTAYMELSSLRSEDTAVYYCARAGGDSSGYYGALGRFFQHWGQGTLVTVSS VL: VIWMTQSPSLLSASTGDRVTISCRMSQGISSYLAWYQQKPGKAPELLIHTAYTLKSGVPSRFSGSGSGKDFTLTISGLQSEDFATYYCQQYYSFPYTFGQGTKVEIK ?
Result: 0%
